The reader will find reported EC50 values listed item by item below.
Biological target: T1, recombinant human TfR1 (transferrin receptor 1) (human, UniProt P02786 89-760)
T1 construct: Bought recombinant His-tagged protein; also called hTfR1
T1 sequence (P02786 89-760 limits assumed): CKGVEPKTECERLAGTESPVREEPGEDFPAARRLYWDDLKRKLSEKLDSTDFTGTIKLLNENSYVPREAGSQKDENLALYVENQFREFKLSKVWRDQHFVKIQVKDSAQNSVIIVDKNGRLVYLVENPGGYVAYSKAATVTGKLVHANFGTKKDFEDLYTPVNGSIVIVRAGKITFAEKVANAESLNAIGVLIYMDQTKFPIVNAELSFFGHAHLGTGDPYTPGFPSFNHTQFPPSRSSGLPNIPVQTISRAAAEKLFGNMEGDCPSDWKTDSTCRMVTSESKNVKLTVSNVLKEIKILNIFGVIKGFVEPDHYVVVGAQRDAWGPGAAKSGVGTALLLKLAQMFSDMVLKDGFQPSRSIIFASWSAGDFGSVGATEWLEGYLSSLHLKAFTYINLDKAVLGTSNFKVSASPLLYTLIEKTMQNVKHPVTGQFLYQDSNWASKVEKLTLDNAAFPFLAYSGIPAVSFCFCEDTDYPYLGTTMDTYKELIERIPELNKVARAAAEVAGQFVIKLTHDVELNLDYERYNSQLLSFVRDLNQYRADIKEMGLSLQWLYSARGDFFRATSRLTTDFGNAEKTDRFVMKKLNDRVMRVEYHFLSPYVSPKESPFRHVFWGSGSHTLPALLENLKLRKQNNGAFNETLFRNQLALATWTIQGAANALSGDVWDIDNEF
Test: ELISA, plate coated with 1 µg/ml recombinant human TfR1, purified VNAR-Fc titrated, 4-parameter fit
Write the answer as a number in nM, unit excluded.

>  <Binder>
Clone 16 VNAR-Fc fusion protein (Fc fusion, Bivalent VNAR-Fc; not shown: glycine/serine linker (GxSx)n extending the hinge; human IgG1 Fc (hinge, CH2, CH3) of pFUSE-hIgG1e3-Fc2; G236 also deleted) ARVDQTPQTITKETGESLTINCVLRDSNCALPSTYWYRKKSGSTNEESISKGGRYVETVNSGSKSFSLRINDLTVKDSGTYRCKVDLPRYLCFSQYGRWYDVYGDGTAVTVNA

>  <Value>
3110

$$$$

Proceed to the following item.
So for Clone 12 VNAR-Fc fusion protein (Fc fusion, Bivalent VNAR-Fc; not shown: glycine/serine linker (GxSx)n extending the hinge; human IgG1 Fc (hinge, CH2, CH3) of pFUSE-hIgG1e3-Fc2; G236 also deleted) ARVDQTPQTITKETGESLTINCVLRDSICALSSTHWYRKKSGSTNEESISKGGRYVETVNSGSKSFSLRINDLTVEDSGTYRCKVVRSGVGPCWADVYGGGTAVTVNA , the logged EC50 turned out to be 151
